Listed here: items and their measured residual activity.
biological target: FLT1 (human) (UniProt P17948); experiment: radiometric filter-binding kinase assay; details: compound 1.0 µM
Sequence (P17948 whole entry, looked up): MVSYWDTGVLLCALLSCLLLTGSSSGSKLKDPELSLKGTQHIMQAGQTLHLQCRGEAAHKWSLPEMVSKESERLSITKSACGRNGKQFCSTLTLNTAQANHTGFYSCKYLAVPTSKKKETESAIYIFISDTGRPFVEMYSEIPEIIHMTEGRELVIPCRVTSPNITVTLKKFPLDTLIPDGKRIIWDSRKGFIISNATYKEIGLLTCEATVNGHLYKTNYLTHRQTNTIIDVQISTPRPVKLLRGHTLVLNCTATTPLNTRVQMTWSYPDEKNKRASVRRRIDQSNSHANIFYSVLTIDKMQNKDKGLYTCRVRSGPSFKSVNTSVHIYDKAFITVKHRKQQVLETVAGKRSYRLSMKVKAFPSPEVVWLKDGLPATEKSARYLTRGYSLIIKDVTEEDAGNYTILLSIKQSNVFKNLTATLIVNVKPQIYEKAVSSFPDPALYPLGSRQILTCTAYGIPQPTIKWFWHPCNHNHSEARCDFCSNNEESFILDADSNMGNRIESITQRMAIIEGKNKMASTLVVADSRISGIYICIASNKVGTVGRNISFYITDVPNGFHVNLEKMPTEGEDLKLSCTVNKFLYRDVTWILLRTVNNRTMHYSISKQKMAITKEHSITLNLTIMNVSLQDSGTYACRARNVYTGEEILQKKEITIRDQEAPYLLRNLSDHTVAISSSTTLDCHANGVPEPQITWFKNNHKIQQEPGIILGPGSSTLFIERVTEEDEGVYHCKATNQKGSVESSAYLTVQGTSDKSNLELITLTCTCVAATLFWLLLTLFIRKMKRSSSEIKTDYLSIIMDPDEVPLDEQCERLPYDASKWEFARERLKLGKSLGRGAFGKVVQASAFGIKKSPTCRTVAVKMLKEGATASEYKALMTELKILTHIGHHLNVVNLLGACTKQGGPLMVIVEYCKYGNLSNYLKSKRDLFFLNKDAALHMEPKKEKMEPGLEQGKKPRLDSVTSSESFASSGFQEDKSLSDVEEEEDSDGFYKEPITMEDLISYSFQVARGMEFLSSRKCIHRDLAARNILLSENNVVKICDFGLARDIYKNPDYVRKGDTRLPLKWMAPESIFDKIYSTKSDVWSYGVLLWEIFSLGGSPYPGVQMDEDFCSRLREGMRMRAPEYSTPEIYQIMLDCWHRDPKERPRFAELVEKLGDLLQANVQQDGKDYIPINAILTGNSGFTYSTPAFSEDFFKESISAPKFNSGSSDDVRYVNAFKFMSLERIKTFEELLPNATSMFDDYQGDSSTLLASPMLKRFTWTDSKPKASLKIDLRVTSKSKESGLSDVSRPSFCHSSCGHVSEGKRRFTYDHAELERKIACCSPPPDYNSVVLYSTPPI
Answer in %, number only, no unit symbol.

Worked examples follow.
# Compound, Unit Text, residual activity
data = [
    ("O=C(NOCC(O)CO)c1ccc(F)c(F)c1Nc1ccc(I)cc1Cl (stereo not drawn)", "%", 98),
    ("FC(F)(F)c1ccc(-c2ccc(Oc3cncc4sc(-c5nn[nH]n5)cc34)cc2)cc1", "%", 96),
]

// switching to the query compound
Input: // returns reported residual activity for input O=C1NC(=S)N[C@@H]1Cc1c[nH]c2ccccc12
Output: 89
